Just for reference, the Immune Epitope Database (IEDB) is where these values come from.

molecular target: HLA-B*15:09; test: IEDB peptide-MHC binding, purified MHC/direct/fluorescence; filed as Kd, often an IC50 or EC50 that approximates it; bounds were set here for any values at or beyond the usual limits of such assays; settings: source organism: Variola virus
pKd: −log10 of the molar value.
metric: pKd

Would you kindly share the measured pKd for KELENEYYF ? ≤ 4.70

* * *

target: HLA-B*46:01; test: IEDB peptide-MHC binding, purified MHC/competitive/fluorescence; filed as Kd, often an IC50 or EC50 that approximates it; bounds were set here for any values at or beyond the usual limits of such assays; conditions: source organism: Brucella melitensis bv. 1 str. 16M
metric: Kd

Item: AVGVVCTGL Test system: HLA-B*46:01 Read-out: Kd Value: ? ≥ 20 µM

* * *

biological target: HLA-A*26:01; assay: IEDB peptide-MHC binding, purified MHC/direct/fluorescence; filed as Kd, often an IC50 or EC50 that approximates it; bounds were set here for any values at or beyond the usual limits of such assays; conditions: source organism: Brucella abortus
metric: Kd

Would you kindly share the measured Kd for EKPPVRPIF ? ≥ 20 µM

* * *

target: HLA-B*45:01; test: IEDB peptide-MHC binding, purified MHC/competitive/radioactivity; filed as Kd, often an IC50 or EC50 that approximates it; bounds were set here for any values at or beyond the usual limits of such assays; settings: source organism: SARS coronavirus Tor2
metric: pKd
Numbers only, as −log10 of the molar value.

Completed entries (count: 6):
INSERT INTO results (biopolymer_sequence, target_or_system, metric, experimental_value) VALUES
  ('LEVKFNAPA', 'HLA-B*45:01', 'pKd', 8.35),
  ('MEVQSLAMST', 'HLA-B*45:01', 'pKd', 6.59),
  ('EEVAIILASF', 'HLA-B*45:01', 'pKd', 5.86),
  ('SEAFLIGANY', 'HLA-B*45:01', 'pKd', 6.24),
  ('FERDISNVPF', 'HLA-B*45:01', 'pKd', 5.19),
  ('SEFSSLPSYA', 'HLA-B*45:01', 'pKd', 7.60);

Give one value of pKd per listed sequence.
1. NDFVSDADST
2. MELPTGVHA
3. MDGIQYGRSG
4. CELYHYQECV
5. NEKVAGFAKF
6. SELRPDTRY

1. 5.59
2. 7.10
3. 4.96
4. 6.37
5. 4.73
6. 5.78

* * *

target: HLA-A*23:01; test: IEDB peptide-MHC binding, purified MHC/direct/fluorescence; filed as Kd, often an IC50 or EC50 that approximates it; bounds were set here for any values at or beyond the usual limits of such assays; settings: source organism: Rio Mamore hantavirus
metric: Kd

Would you kindly share the measured Kd for YRRKLTNPA ? ≥ 20 µM

* * *

target: HLA-B*27:05; assay: IEDB peptide-MHC binding, purified MHC/direct/fluorescence; filed as Kd, often an IC50 or EC50 that approximates it; bounds were set here for any values at or beyond the usual limits of such assays; details: source organism: Serratia marcescens
metric: Kd

Would you kindly share the measured Kd for LIPDGDGEV ? ≥ 20 µM

* * *

biological target: HLA-A*02:06; experiment: IEDB peptide-MHC binding, purified MHC/competitive/radioactivity; filed as Kd, often an IC50 or EC50 that approximates it; bounds were set here for any values at or beyond the usual limits of such assays; conditions: source organism: Trypanosoma cruzi
metric: pKd
One number for each entry, as −log10 of the molar value.

Would you kindly share the measured pKd for EVLRPTTLV ? 5.84

* * *

molecular target: HLA-B*15:17; test: IEDB peptide-MHC binding, purified MHC/competitive/fluorescence; filed as Kd, often an IC50 or EC50 that approximates it; bounds were set here for any values at or beyond the usual limits of such assays; conditions: source organism: Vaccinia virus WR
metric: Kd

Would you kindly share the measured Kd for NSNINVINY ? ≥ 20 µM

* * *

molecular target: HLA-B*46:01; test: IEDB peptide-MHC binding, purified MHC/direct/fluorescence; filed as Kd, often an IC50 or EC50 that approximates it; bounds were set here for any values at or beyond the usual limits of such assays; details: source organism: Giardia lamblia ATCC 50803
pKd: −log10 of the molar value.
metric: pKd

Would you kindly share the measured pKd for MHDPHSIPL ? ≤ 4.70

* * *

target: HLA-A*24:02; assay: IEDB peptide-MHC binding, purified MHC/direct/fluorescence; filed as Kd, often an IC50 or EC50 that approximates it; bounds were set here for any values at or beyond the usual limits of such assays; settings: source organism: Influenza A virus (A/equine/Massachussetts/213/2003(H3N8))
pKd: −log10 of the molar value.
metric: pKd

Would you kindly share the measured pKd for ILKGKFQTA ? ≤ 4.70

* * *

target: HLA-B*27:05; test: IEDB peptide-MHC binding, purified MHC/direct/fluorescence; filed as Kd, often an IC50 or EC50 that approximates it; bounds were set here for any values at or beyond the usual limits of such assays; conditions: source organism: Sudan ebolavirus - Maleo (1979)
metric: Kd (nM)
Numbers only, in nM.

Would you kindly share the measured Kd for KRLQILGYL ? 204

* * *

biological target: HLA-B*07:02; test: IEDB peptide-MHC binding, purified MHC/competitive/fluorescence; filed as Kd, often an IC50 or EC50 that approximates it; bounds were set here for any values at or beyond the usual limits of such assays; conditions: source organism: Shigella flexneri 2a str. 301
metric: pKd
Numbers only, as −log10 of the molar value.

Would you kindly share the measured pKd for KPVGWAMSF ? 7.92

* * *

target: HLA-A*26:01; experiment: IEDB peptide-MHC binding, purified MHC/competitive/radioactivity; filed as Kd, often an IC50 or EC50 that approximates it; bounds were set here for any values at or beyond the usual limits of such assays; settings: source organism: SARS coronavirus Tor2
Quick rule for you: Kd under 0.6 µM gets Y, anything else gets N.

Example entries begin here.
INSERT INTO measurements (biopolymer_sequence, class_label) VALUES
  ('MYIFFASFYY', 'Y'),
  ('CKDGHVETFY', 'N'),
  ('RYNLPTMCDI', 'N'),
  ('RYNTRGNTY', 'N'),
  ('LTNDNTSRY', 'Y'),
  ('RVDFCGKGY', 'N'),
  ('HFAIGLALYY', 'Y'),
  ('FYFTNDVSFL', 'N'),
  ('KSFEIDKGIY', 'N'),
  ('KSAQCFKMFY', 'N');

# strict comparison: is reported Kd < 0.6 µM? input = LWLLWPVTL N

// query: FDEISMATNY N

// query: VFQSATKII N

// query: LTDDMIAAY N

// query: LLEKCDLQNY N

// query: FSGALDTTSY N

// query: DNAFNCTFEY Y

* * *

biological target: HLA-A*02:12; test: IEDB peptide-MHC binding, purified MHC/competitive/fluorescence; filed as Kd, often an IC50 or EC50 that approximates it; bounds were set here for any values at or beyond the usual limits of such assays; conditions: source organism: Pseudomonas aeruginosa PACS2
metric: Kd
Provide the measurement as a number trailed by its unit.

Would you kindly share the measured Kd for KLIDVSKCI ? 0.0109 µM

* * *

target: HLA-B*15:09; test: IEDB peptide-MHC binding, purified MHC/competitive/fluorescence; filed as Kd, often an IC50 or EC50 that approximates it; bounds were set here for any values at or beyond the usual limits of such assays; details: source organism: Pleistophora sp. LS
metric: Kd

Would you kindly share the measured Kd for VELQIGWTV ? ≥ 20 µM

* * *

target: HLA-B*15:01; assay: IEDB peptide-MHC binding, purified MHC/competitive/fluorescence; filed as Kd, often an IC50 or EC50 that approximates it; bounds were set here for any values at or beyond the usual limits of such assays; details: source organism: Bacillus anthracis str. A0488
metric: pKd
One number for each entry, as −log10 of the molar value.

Would you kindly share the measured pKd for ILRHSTAHL ? 6.85

* * *

molecular target: HLA-A*31:01; experiment: IEDB peptide-MHC binding, purified MHC/competitive/radioactivity; filed as Kd, often an IC50 or EC50 that approximates it; bounds were set here for any values at or beyond the usual limits of such assays; conditions: source organism: Mammarenavirus choriomeningitidis
metric: Kd (nM)
One number for each entry, in nM.

Would you kindly share the measured Kd for LVSFLLLAGR ? 9.28

* * *

molecular target: HLA-A*02:03; assay: IEDB peptide-MHC binding, purified MHC/competitive/radioactivity; filed as Kd, often an IC50 or EC50 that approximates it; bounds were set here for any values at or beyond the usual limits of such assays; settings: source organism: Trypanosoma cruzi
metric: pKd
Answers are plain numbers, as −log10 of the molar value.

Would you kindly share the measured pKd for EVLRPTTLV ? 5.26

* * *

molecular target: HLA-B*51:01; test: IEDB peptide-MHC binding, purified MHC/direct/fluorescence; filed as Kd, often an IC50 or EC50 that approximates it; bounds were set here for any values at or beyond the usual limits of such assays; conditions: source organism: Bacillus cereus H3081.97
metric: Kd

Item: TVIRFWHAM Test system: HLA-B*51:01 Read-out: Kd Value: ? ≥ 20 µM
